The next entries give measured IC50 for UniProtKB P23743.
Sequence (P23743 whole entry, species assumed): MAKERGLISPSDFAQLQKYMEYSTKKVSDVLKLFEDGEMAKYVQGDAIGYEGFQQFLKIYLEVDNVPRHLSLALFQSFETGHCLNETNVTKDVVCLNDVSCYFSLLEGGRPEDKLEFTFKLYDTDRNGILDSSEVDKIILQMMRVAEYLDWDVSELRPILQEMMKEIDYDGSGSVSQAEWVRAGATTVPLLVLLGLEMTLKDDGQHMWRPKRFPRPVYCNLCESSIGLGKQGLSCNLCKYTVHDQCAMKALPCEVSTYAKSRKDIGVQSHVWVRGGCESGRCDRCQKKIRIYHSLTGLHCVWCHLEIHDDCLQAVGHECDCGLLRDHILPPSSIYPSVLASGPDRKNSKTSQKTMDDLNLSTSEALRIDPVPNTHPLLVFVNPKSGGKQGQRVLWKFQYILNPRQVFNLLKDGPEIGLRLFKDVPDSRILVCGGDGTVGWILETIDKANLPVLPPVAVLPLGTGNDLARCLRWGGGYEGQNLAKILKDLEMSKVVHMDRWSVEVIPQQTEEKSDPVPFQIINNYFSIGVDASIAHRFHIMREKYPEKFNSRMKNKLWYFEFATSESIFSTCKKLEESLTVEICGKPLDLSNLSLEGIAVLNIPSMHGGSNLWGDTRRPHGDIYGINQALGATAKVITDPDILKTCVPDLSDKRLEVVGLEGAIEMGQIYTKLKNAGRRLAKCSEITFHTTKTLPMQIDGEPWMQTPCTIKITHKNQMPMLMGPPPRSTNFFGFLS

smiles-entry | IC50
Cc1nc2sccn2c(=O)c1CCN1CCC(=C(c2ccc(F)cc2)c2ccc(F)cc2)CC1 | 9 µM
Cc1nc2sccn2c(=O)c1CCN1CCC(=C(c2ccccc2)c2ccc(F)cc2)CC1 | 20 µM
